- system: CphA (Aeromonas hydrophila, UniProt P26918)
- Construct: made in house; host or cells: E. coli
- Sequence (P26918 28-254): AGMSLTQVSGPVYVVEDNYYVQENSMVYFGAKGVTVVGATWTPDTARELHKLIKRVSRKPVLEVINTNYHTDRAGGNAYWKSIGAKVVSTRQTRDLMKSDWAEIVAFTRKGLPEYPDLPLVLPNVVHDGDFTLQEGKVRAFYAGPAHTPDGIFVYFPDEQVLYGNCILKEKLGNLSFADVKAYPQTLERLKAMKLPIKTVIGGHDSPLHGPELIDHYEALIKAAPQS
- assay.method.text: β-lactamase inhibition, meropenem hydrolysis UV assay
- Format: biochemical
- condition.label: subclass B2
quantity.name: pIC50
The read-out pIC50 is expressed as -log10 of concentration in moles per litre.

Qu. State, in one line, measured pIC50 of O=C(O)C[C@@H]1CC[C@H](NC(=O)Cc2cccs2)B(O)O1 [Vaborbactam, vaborbactam]
Ans. 3.20

====

- system: OXA-10 (Pseudomonas aeruginosa)
- Construct: made in house; host or cells: E. coli
- Sequence (P14489 20-266, species assumed): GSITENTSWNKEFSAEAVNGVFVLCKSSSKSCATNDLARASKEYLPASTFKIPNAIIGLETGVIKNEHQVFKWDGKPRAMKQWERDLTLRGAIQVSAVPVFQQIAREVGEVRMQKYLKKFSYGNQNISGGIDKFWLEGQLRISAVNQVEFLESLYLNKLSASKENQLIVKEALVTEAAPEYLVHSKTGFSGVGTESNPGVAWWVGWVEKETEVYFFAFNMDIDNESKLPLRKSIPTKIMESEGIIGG
- assay.method.text: β-lactamase inhibition, FC-5 fluorogenic cephalosporin assay
- Assay type: biochemical
- condition.label: read-out: Vaborbactam IC50; OXA-10, class D, 100 mM NaHCO3
quantity.name: IC50

Qu. State, in one line, measured IC50 of O=C(O)C[C@@H]1CC[C@H](NC(=O)Cc2cccs2)B(O)O1 [Vaborbactam, vaborbactam]
Ans. > 400 µM

====

- system: OXA-10 (Pseudomonas aeruginosa)
- Construct: made in house; host or cells: E. coli
- assay.method.text: β-lactamase inhibition, FC-5 fluorogenic cephalosporin assay
- Assay type: biochemical
- condition.label: OXA-10, class D, without NaHCO3
quantity.name: IC50

Qu. State, in one line, measured IC50 of O=C(O)C[C@@H]1CC[C@H](NC(=O)Cc2cccs2)B(O)O1 [Vaborbactam, vaborbactam]
Ans. > 400 µM

====

- system: OXA-48 (Klebsiella pneumoniae)
- Sequence (Q6XEC0 23-265, looked up, species assumed): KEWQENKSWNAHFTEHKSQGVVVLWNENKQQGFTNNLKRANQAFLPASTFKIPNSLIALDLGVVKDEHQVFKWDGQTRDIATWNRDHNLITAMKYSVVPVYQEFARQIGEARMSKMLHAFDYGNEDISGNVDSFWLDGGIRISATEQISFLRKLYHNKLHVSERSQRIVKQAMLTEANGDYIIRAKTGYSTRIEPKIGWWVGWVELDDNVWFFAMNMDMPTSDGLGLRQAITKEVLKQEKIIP
- assay.method.text: β-lactamase inhibition, FC-5 fluorogenic cephalosporin assay
- condition.label: Vaborbactam IC50, OXA-48, class D, 100 mM NaHCO3
quantity.name: pIC50
The read-out pIC50 is expressed as -log10 of concentration in moles per litre.

Qu. State, in one line, measured pIC50 of O=C(O)C[C@@H]1CC[C@H](NC(=O)Cc2cccs2)B(O)O1 [Vaborbactam, vaborbactam]
Ans. 4.49

====

- system: KPC-2 (Klebsiella pneumoniae, UniProt Q9F663)
- Sequence (Q9F663 25-293, looked up, species assumed): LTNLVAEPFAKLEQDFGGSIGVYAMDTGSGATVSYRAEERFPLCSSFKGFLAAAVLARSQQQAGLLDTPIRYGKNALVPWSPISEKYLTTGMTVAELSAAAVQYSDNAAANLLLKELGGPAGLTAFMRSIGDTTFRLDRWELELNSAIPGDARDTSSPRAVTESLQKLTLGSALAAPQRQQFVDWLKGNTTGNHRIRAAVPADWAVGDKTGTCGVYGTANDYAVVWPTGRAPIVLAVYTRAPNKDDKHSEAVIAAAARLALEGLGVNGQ
- assay.method.text: β-lactamase inhibition, FC-5 fluorogenic cephalosporin assay
- condition.label: KPC-2, class A
quantity.name: pIC50
The read-out pIC50 is expressed as -log10 of concentration in moles per litre.

Qu. State, in one line, measured pIC50 of O=C(O)C[C@@H]1CC[C@H](NC(=O)Cc2cccs2)B(O)O1
Ans. 7.05

====

- system: VIM-1 (Pseudomonas aeruginosa, UniProt A0A0F7KYQ8)
- assay.method.text: β-lactamase inhibition, FC-5 fluorogenic cephalosporin assay
- condition.label: VIM-1, subclass B1
quantity.name: pIC50
The read-out pIC50 is expressed as -log10 of concentration in moles per litre.

Qu. State, in one line, measured pIC50 of O=C(O)C[C@@H]1CC[C@H](NC(=O)Cc2cccs2)B(O)O1 [Vaborbactam, vaborbactam]
Ans. 3.40

====

- system: NDM-1 (Klebsiella pneumoniae)
- Sequence (C7C422 29-270, looked up, species assumed): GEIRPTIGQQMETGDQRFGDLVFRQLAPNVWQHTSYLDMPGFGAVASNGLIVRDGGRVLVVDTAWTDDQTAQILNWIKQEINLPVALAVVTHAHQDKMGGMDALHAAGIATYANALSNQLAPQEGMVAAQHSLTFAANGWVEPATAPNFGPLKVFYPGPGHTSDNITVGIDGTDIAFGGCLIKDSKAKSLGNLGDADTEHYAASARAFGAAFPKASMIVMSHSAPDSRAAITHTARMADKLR
- assay.method.text: β-lactamase inhibition, FC-5 fluorogenic cephalosporin assay
- condition.label: NDM-1, subclass B1
- Procedure: Recombinant MBLs and SBLs were produced in E. coli and purified following reported procedures^1-6 and were all >95% pure (as judged by SDS-PAGE and MS analyses). […] Activity was assayed by monitoring the release of a fluorophore following the enzymatic breakdown of the cephalosporin FC-5^15, with the exception of the class B2 MBLs, where the hydrolysis of meropenem was used as a readout^16. […] Initial rates of reaction were determined and dose-response analyses conducted in GraphPad Prism^15.
quantity.name: IC50
Your reply should be a number followed by the unit it is expressed in.

Qu. Look up and report IC50, with NDM-1 (Klebsiella pneumoniae) as system, for O=C(O)C[C@@H]1CC[C@H](NC(=O)Cc2cccs2)B(O)O1
Ans. 631 µM

Reference for the values: paper PMC6593178
